test: Microsolubility estimate by repeated addition of vehicle; assay type: physicochemical; details: Olive oil, oil or lipid, thermodynamic from solid; read-out: Microsolubility
Item-by-item account of Solubility

The examples below pair each entry with its known result.
CCOC(=O)N1c2ccc(C(F)(F)F)cc2[C@@H](N(Cc2cc(C(F)(F)F)cc(C(F)(F)F)c2)C(=O)OC)C[C@H]1CC | > 300 mg/mL
CCCOC(=O)N1c2ccc(C(F)(F)F)cc2[C@@H](N(Cc2cc(C(F)(F)F)cc(C(F)(F)F)c2)C(=O)OC)C[C@H]1CC | 303 mg/mL
COC(=O)N(Cc1cc(C(F)(F)F)cc(C(F)(F)F)c1)[C@@H]1CC(C2CC2)N(C(=O)OC(C)C)c2ccc(C(F)(F)F)cc21 (stereo in doubt) | > 300 mg/mL

What does the data say about its Solubility? Entry: CCCOC(=O)N1c2ccc(C(F)(F)F)cc2[C@@H](N(Cc2cc(C(F)(F)F)cc(C(F)(F)F)c2)C(C)=O)CC1C1CC1 (stereo in doubt)
< 300 mg/mL

What does the data say about its Solubility? Entry: `CCOC(=O)N1c2cc3c(cc2[C@H](N(Cc2cc(C(F)(F)F)cc(C(F)(F)F)c2)C(=O)OC)C[C@@H]1C)CCC3`
> 100 mg/mL

What does the data say about its Solubility? Entry: `CCOC(=O)N1c2ccc(C(F)(F)F)cc2[C@@H](N(C=O)Cc2cc(C(F)(F)F)cc(C(F)(F)F)c2)C[C@H]1CC`
> 300 mg/mL

What does the data say about its Solubility? Entry: `CCOC(=O)N1c2ccc(C(F)(F)F)cc2[C@@H](N(Cc2cc(C(F)(F)F)cc(C(F)(F)F)c2)C(C)=O)C[C@H]1C`
< 300 mg/mL

What does the data say about its Solubility? Entry: `CCOC(=O)N1c2cc(C(F)(F)F)ccc2[C@@H](N(Cc2cc(C(F)(F)F)cc(C(F)(F)F)c2)C(=O)OC)C[C@H]1C`
< 20 mg/mL

What does the data say about its Solubility? Entry: COC(=O)N(Cc1cc(C(F)(F)F)cc(C(F)(F)F)c1)[C@H]1CC(C2CC2)N(C(=O)OC(C)C)c2ccc(C(F)(F)F)cc21 (stereo in doubt)
> 300 mg/mL

What does the data say about its Solubility? Entry: CCCOC(=O)N1c2ccc(C(F)(F)F)cc2[C@@H](N(C=O)Cc2cc(C(F)(F)F)cc(C(F)(F)F)c2)CC1C1CC1 (stereo in doubt)
> 300 mg/mL

What does the data say about its Solubility? Entry: `CCC(CC)CC1(C(=O)Nc2ccccc2SC(=O)C(C)C)CCCCC1`
< 100 mg/mL

What does the data say about its Solubility? Entry: `CCOC(=O)N1c2ccc(C(F)(F)F)cc2[C@@H](N(Cc2cc(C(F)(F)F)cc(C(F)(F)F)c2)C(=O)OC)C[C@H]1C`
< 300 mg/mL

What does the data say about its Solubility? Entry: `CCOC(=O)N1c2ccc(C(F)(F)F)cc2[C@@H](N(C=O)Cc2cc(C(F)(F)F)cc(C(F)(F)F)c2)C[C@H]1C`
< 300 mg/mL

###

Assay: Pharmacokinetics in dogs
Format: in vivo, Male Beagle dogs
Conditions: male, Beagle, dog, plasma, po, 90 mg, Fed, Miglyol 812/Triacetin/Cremophor RH40/Capmul MCM (20/30/20/30)
Description: Male Beagle dogs (n=6) between the ages of 2-5 and weighing 6-12 kg were dosed with capsules followed by 50 mL of water. […] The dogs were either fasted or fed just prior to dosing with 14 g of dry dog food and 8 gm olive oil. The same set of dogs were used for all formulations, except where indicated. […] Unless otherwise indicated, results are for the fasted state. Miglyol® softgels have a very low fasted exposure and thus a high food effect. […]
Assay Metric: Cmax
Dear colleague, please send the value followed by its unit.

What does the data say about its Cmax? Entry: `CC[C@@H]1C[C@H](N(Cc2cc(C(F)(F)F)cc(C(F)(F)F)c2)C(C)=O)c2cc(C(F)(F)F)ccc2N1C(=O)OC(C)C`
1200 ng/mL
